assay target: human glucagon receptor (human, UniProt P47871)
protocol notes: cell-based or functional assay
Starred links: 1 amine or outer side, 2 acyl side, 3 side chain; linkers in the order of their positions; H or OH if unused. Non-standard residues stand in square brackets, D forms with d. Groups on a side chain read outwards from the residue. No end group written: not given here. *: point of attachment. C20 diacid = O=C(O)CCCCCCCCCCCCCCCCCCC(=O)*; C18 diacid = O=C(O)CCCCCCCCCCCCCCCCC(=O)*; γGlu = O=C(O)[C@H](CCC(=O)[*:2])N[*:1]; αMeF = C[C@](N)(Cc1ccccc1)C(=O)O; AEEA = NCCOCCOCC(=O)O; Aib = CC(C)(N)C(=O)O
metric name: hGluc-R EC50 (pM)
Write down the numeric answer in pM and omit the unit.

Below, each entry is followed by its recorded hGluc-R EC50 (pM) result.
binder | result units | number
H[Aib]HGS[αMeF]TSDVSK[αMeF]LDSRAAK([AEEA-AEEA-γGlu-γGlu-C20 diacid])D[αMeF]VQ[Aib]IANT-NH2 (not fully specified) [Peptide 282] | pM | 1140
H[Aib]HGS[αMeF]TSDVSK[αMeF]LDSRAAK([AEEA-AEEA-γGlu-γGlu-C20 diacid])DFVQWIANT-NH2 (not fully specified) [Peptide 290] | pM | 260
H[Aib]HGS[αMeF]TSDVSK[αMeF]LDSRAAK([AEEA-AEEA-γGlu-C18 diacid])DFVQ[Aib]IANT-NH2 [Peptide 287] | pM | 26.5

The record that follows has no hGluc-R EC50 (pM) shown yet.
Name the recorded hGluc-R EC50 (pM) for H[Aib]HGS[αMeF]TSDVSK[αMeF]LDSRAAK([AEEA-C18 diacid])D[αMeF]VQ[Aib]IANT-NH2 [Peptide 273] . 23.3
